Across several studies, molecules have been characterized by their IC50 on F1F0-ATPase (Bos taurus, UniProt P13621); a selection follows.

Return reported IC50; argument: Cc1ccc(-c2cc(N/C(=N\C(=O)c3ccc(C(F)(F)F)cc3)NC(C)C(C)C)[nH]n2)cc1F (stereo not shown)
< 10 µM

Now try "CC1(N/C(=N/C(=O)c2ccc(Cl)cc2)Nc2cccc(O)n2)CCCC1" .
< 10 µM

Now try O=C(/N=C(/Nc1cc(F)cc(Cl)c1)NC1CCC(NC(=O)c2nccs2)CC1)c1ccc(F)c(F)c1 (stereo not shown) .
< 10 µM

Now try "Cc1cc(N/C(=N\C(=O)c2ccc(C(F)(F)F)cc2)NCCC(F)(F)F)n[nH]1" .
< 10 µM

====

Across several studies, compounds have been characterized by their IC50 on F1F0-ATPase (Bos taurus, UniProt P13621); a selection follows.

Return reported IC50; argument: "O=C(/N=C(\Nc1cc(C(F)(F)F)[nH]n1)NC1CCCC1)c1cccc(C(F)(F)F)c1"
< 10 µM

Now try "Cc1oncc1C(=O)/N=C(\Nc1cc(-c2cc(F)cc(Cl)c2)n[nH]1)NC(C)C" .
< 5 µM

Now try "O=C(/N=C(/NCc1ccc(Cl)cc1F)Nc1cc(C(F)(F)F)[nH]n1)c1ccc(Cl)cc1" .
< 10 µM

Now try COCC(C)N/C(=N/C(=O)c1ccc(Cl)c(F)c1)Nc1cc(C(F)(F)F)n[nH]1 (stereo not shown) .
< 10 µM

Now try "CC(C)(C)N/C(=N/C(=O)c1ccc(Cl)cc1)Nc1cccc(NS(=O)(=O)CC(F)(F)F)n1" .
< 10 µM

Now try "CC(C)NC(=NC(=O)c1ccc(F)cc1)Nc1cc(-c2ccc(F)cc2)[nH]n1" .
< 10 µM

Now try "Cc1nc(C(=O)/N=C(\Nc2cc(-c3ccc(F)cc3)[nH]n2)NC(C)(C)C)c(C(F)(F)F)o1" .
< 5 µM

====

Across several studies, compounds have been characterized by their IC50 on F1F0-ATPase (Bos taurus); a selection follows.

Return reported IC50; argument: "O=C(/N=C(/Nc1cc(F)cc(Cl)c1)N[C@H]1CC[C@H](NC(=O)N2CCOCC2)CC1)c1ccc(F)c(F)c1"
< 10 µM

Now try "O=C(N=C(Nc1cc(-c2ccc(Cl)cc2)n[nH]1)NC1CCCC1)c1ccc(F)c(F)c1" .
< 10 µM

Now try COC(=O)NC1CCC(N/C(=N\C(=O)c2cccc(OC)c2)Nc2cc(F)cc(Cl)c2)CC1 (stereo not drawn) .
< 10 µM

Now try "O=C(/N=C(/Nc1cc(F)cc(Cl)c1)Nc1cccc(O)n1)c1ccc(Cl)c(F)c1" .
< 10 µM

Now try "Cn1nc(C(F)(F)F)cc1N/C(=N\C(=O)c1ccc(C(F)(F)F)cc1)Nc1cc(F)cc(Cl)c1" .
< 10 µM

Now try "Cc1cc(N/C(=N\C(=O)c2ccc(C(F)(F)F)cc2)NCC(C)C)n[nH]1" .
< 10 µM

Now try "Cn1cc(C(=O)/N=C(\NCC(C)(C)C)Nc2cc(-c3cc(F)cc(F)c3)n[nH]2)c(C(F)(F)F)n1" .
< 5 µM

Now try "Cc1cc(N/C(=N\C(=O)c2cc(C)oc2C(F)(F)F)Nc2cc(F)cc(Cl)c2)n[nH]1" .
< 5 µM

Now try "CC(=O)Nc1cccc(NC(=NC(=O)c2ccc(Cl)cc2)Nc2cc(F)cc(Cl)c2)n1" .
< 10 µM

Now try "CCOC(=O)N[C@H]1CC[C@H](N/C(=N\C(=O)c2ccc(C(F)(F)F)cc2)NC2CCCC2)CC1" .
< 10 µM

Now try "Cn1cc(C(=O)/N=C(/Nc2ccc(F)c(Cl)c2)Nc2cc(-c3ccc(O)c(F)c3)n[nH]2)c(C(F)(F)F)n1" .
< 5 µM

Now try "O=C(/N=C(/Nc1cccc(C(F)(F)F)c1)N[C@H]1CC[C@H](O)CC1)c1cccc(Cl)c1" .
< 10 µM

Now try "O=C(/N=C(/NCc1ccc(F)c(Cl)c1)Nc1cc(C(F)(F)F)[nH]n1)c1ccc(Cl)cc1" .
< 10 µM

Now try "COC[C@H](C)N/C(=N/C(=O)c1cc(C)nn1C)Nc1cc(-c2cc(F)cc(F)c2)[nH]n1" .
5 to 16 µM

Now try "CCC(C)(C)N/C(=N/C(=O)c1ccc(C(F)(F)F)cc1)Nc1cc(C(F)(F)F)n[nH]1" .
< 10 µM

====

pIC50: −log10 of the molar value.
Across several studies, molecules have been characterized by their pIC50 on F1F0-ATPase (Bos taurus, UniProt P13621); a selection follows.

Notebook entry, F1F0-ATPase (Bos taurus, UniProt P13621) assay: pIC50 of "COc1ccc(CN/C(=N/C(=O)c2ccccc2)Nc2cc(C(F)(F)F)[nH]n2)cc1" = ?
> 5.00

Now try "Cc1ccccc1CN/C(=N/C(=O)c1cc(C(C)(C)C)nn1C)Nc1cc(-c2ccc(F)cc2)n[nH]1" .
> 5.30

Now try "COc1ccc(-c2cc(N/C(=N\C(=O)c3ccc(C(F)(F)F)cc3)NC(C)(C)C)[nH]n2)cc1F" .
> 5.00

Now try "Cc1cc(Cl)ccc1N/C(=N/C(=O)c1cn(C)nc1C(F)(F)F)Nc1cc(-c2ccc(O)c(F)c2)n[nH]1" .
> 5.30

Now try "O=C(/N=C(/Nc1cccc(C(F)(F)F)c1)N[C@H]1CC[C@H](O)CC1)c1ccc(Cl)cc1" .
> 5.00

Now try "COC[C@H](C)N/C(=N/C(=O)c1ccc(N2CCOCC2)nc1)Nc1n[nH]c2cc(C(F)(F)F)ccc12" .
4.80 to 5.30

Now try "O=C(/N=C(/NCc1ccc(F)cc1Cl)Nc1cc(-c2ccccc2)[nH]n1)c1ccc(Cl)c(F)c1" .
> 5.00

====

pIC50: −log10 of the molar value.
Across several studies, molecules have been characterized by their pIC50 on F1F0-ATPase (Bos taurus, UniProt P13621); a selection follows.

Return reported pIC50; argument: "CCOC(=O)N[C@H]1CC[C@H](N/C(=N/C(=O)c2ccc(F)c(F)c2)Nc2cc(F)cc(Cl)c2)CC1"
> 5.00

Now try "CC(C)CN/C(=N/C(=O)c1ccc(N2CCOCC2)nc1)Nc1n[nH]c2cc(C(F)(F)F)ccc12" .
> 5.30

Now try "O=C(/N=C(/NCc1cccc(C(F)(F)F)c1)Nc1cc(C(F)(F)F)[nH]n1)c1ccc(C(F)(F)F)cc1" .
> 5.00

Now try "O=C(/N=C(/NCc1ccc(F)c(Cl)c1)Nc1cc(C(F)F)[nH]n1)c1ccc(C(F)(F)F)cc1" .
> 5.00

Now try "CC(C)(C)CNC(=NC(=O)c1ccc(F)c(F)c1)Nc1n[nH]c2ccccc12" .
> 5.30

Now try "CC1(N/C(=N\C(=O)c2ccc(C(F)(F)F)cc2)Nc2cccc(O)n2)CCC1" .
> 5.00

Now try "CC1(N/C(=N/C(=O)c2ccc(C(F)(F)F)cc2)Nc2cccc(O)n2)CCCC1" .
> 5.00

Now try "O=C(/N=C(/NCc1ccc(C(F)(F)F)cc1)Nc1cccc(O)n1)c1ccc(Cl)cc1" .
> 5.00

====

Across several studies, molecules have been characterized by their IC50 on F1F0-ATPase (Bos taurus, UniProt P13621); a selection follows.

Return reported IC50; argument: "O=C(N=C(Nc1cc(F)cc(Cl)c1)Nc1cc(-c2ccc(F)cc2)n[nH]1)c1cccc(C(F)(F)F)c1"
< 10 µM

Now try "CCOCCNC(=NC(=O)c1ccc(Cl)cc1)Nc1n[nH]c2cc(C(F)(F)F)ccc12" .
< 5 µM

Now try "Cc1cc(N/C(=N\C(=O)c2ccc(C(F)(F)F)cc2)NC2CCCC2)n[nH]1" .
< 10 µM

Now try "COc1cccc(C(=O)N=C(NCC(C)(C)C)Nc2cc(-c3ccc(F)cc3)n[nH]2)c1" .
< 10 µM

Now try CCC(C)N/C(=N/C(=O)c1cccc(OC)c1)Nc1cc(-c2ccc(Cl)cc2)n[nH]1 (stereo not shown) .
< 10 µM

Now try "COC[C@H](C)N/C(=N/C(=O)c1ccnc(OC)c1)Nc1cc(-c2ccc(F)cc2)n[nH]1" .
< 10 µM

Now try "CC(C)(C)N/C(=N/C(=O)c1ccc(C(F)(F)F)cc1)Nc1cccc(O)n1" .
< 10 µM

Now try "CCC(C)(C)N/C(=N/C(=O)c1ccc(F)c(F)c1)Nc1cc(C(F)(F)F)n[nH]1" .
< 10 µM

Now try "O=C(/N=C(/NCC1CCCCC1)Nc1cccc(O)n1)c1ccc(C(F)(F)F)cc1" .
< 10 µM

Now try "O=C(/N=C(/NCc1cccc(C(F)(F)F)c1)N[C@H]1CC[C@H](O)CC1)c1ccc(F)c(F)c1" .
> 10 µM

Now try "Cc1ccc(-c2cc(N/C(=N\C(=O)c3ccc(F)c(F)c3)NC3CCC3)[nH]n2)cc1F" .
< 10 µM

Now try "CC(C)CN/C(=N/C(=O)c1cccnc1C(F)(F)F)Nc1cc(-c2ccc(F)cc2)[nH]n1" .
< 10 µM

Now try "O=C(/N=C(/Nc1cc(F)cc(Cl)c1)Nc1cc(-c2ccccc2)n[nH]1)c1ccc(F)c(F)c1" .
< 10 µM

Now try "CC(C)CNC(=NC(=O)c1cn(C)nc1C(F)(F)F)Nc1n[nH]c2cncc(F)c12" .
> 16 µM

Now try "CC(C)N/C(=N/C(=O)c1cn(C)nc1C(F)(F)F)Nc1cc(-c2ccc(O)cc2F)n[nH]1" .
> 16 µM

Now try "CC(C)CN/C(=N/C(=O)c1cn(C)nc1C(F)(F)F)Nc1n[nH]c2cc(Cl)ccc12" .
< 5 µM
